- subject of test: human mesothelin (MSLN) (human) (UniProt Q13421)
- protocol details: BLI (Octet), bsAb in 1+1 Fab-scFv-Fc format
Provide the recorded koff for the entries that follow.
Numbers only, in s⁻¹.

Past entries and their recorded results:
1) XENP32564 (bispecific antibody, part only; not given: anti-CD3 scFv-Fc arm, constant regions, V domains shown, not shown: another chain or arm of the molecule; a dimerising Fc or GST; small tags and cut ends) VH: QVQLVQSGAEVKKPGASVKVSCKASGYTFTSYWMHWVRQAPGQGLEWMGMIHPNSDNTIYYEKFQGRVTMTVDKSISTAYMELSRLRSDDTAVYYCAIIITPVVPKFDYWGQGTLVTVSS VL: DIVMTQSPDSLAVSLGERATINCKASHDVGTSLAWYQQKPGQSPKLLIYWASTRHTGVPDRFTGSGSGTDFTLTISSLQAEDVAVYFCQQYSSYPLTFGAGTKLEIK: 5.68e-05
2) XENP32565 (bispecific antibody, part only; not given: anti-CD3 scFv-Fc arm, constant regions, V domains shown, not shown: another chain or arm of the molecule; a dimerising Fc or GST; small tags and cut ends) VH: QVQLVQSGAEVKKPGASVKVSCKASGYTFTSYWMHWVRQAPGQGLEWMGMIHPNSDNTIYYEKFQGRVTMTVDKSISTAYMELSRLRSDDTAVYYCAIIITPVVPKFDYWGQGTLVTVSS VL: DIVMTQSPDSLAVSLGERATINCKASHDVGTSVAWYQQKPGQSPKLLIYWASTRETGVPDRFTGSGSGTDFTLTISSLQAEDVAVYFCQQYSSYPLTFGAGTKLEIK: 0.000169
3) XENP32555 (bispecific antibody, part only; not given: anti-CD3 scFv-Fc arm, constant regions, V domains shown, not shown: another chain or arm of the molecule; a dimerising Fc or GST; small tags and cut ends) VH: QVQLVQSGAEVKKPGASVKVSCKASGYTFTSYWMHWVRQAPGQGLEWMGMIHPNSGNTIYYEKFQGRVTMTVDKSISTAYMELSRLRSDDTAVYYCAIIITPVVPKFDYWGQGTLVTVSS VL: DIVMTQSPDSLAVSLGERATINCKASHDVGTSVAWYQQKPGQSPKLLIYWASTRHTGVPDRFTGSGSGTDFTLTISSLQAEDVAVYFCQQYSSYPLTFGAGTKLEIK: 0.000375

List the reported koff of each binder below.
1. XENP32553 (bispecific antibody, part only; not given: anti-CD3 scFv-Fc arm, constant regions, V domains shown, not shown: another chain or arm of the molecule; a dimerising Fc or GST; small tags and cut ends) VH: QVQLVQSGAEVKKPGASVKVSCKASGYTFTSYWMHWVRQAPGQGLEWMGMINPNSDNTIYYEKFQGRVTMTVDKSISTAYMELSRLRSDDTAVYYCAIIITPVVPKFDYWGQGTLVTVSS VL: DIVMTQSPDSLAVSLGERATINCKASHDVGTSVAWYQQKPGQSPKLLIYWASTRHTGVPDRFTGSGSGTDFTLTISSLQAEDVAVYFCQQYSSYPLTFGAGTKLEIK
2. XENP32554 (bispecific antibody, part only; not given: anti-CD3 scFv-Fc arm, constant regions, V domains shown, not shown: another chain or arm of the molecule; a dimerising Fc or GST) VH: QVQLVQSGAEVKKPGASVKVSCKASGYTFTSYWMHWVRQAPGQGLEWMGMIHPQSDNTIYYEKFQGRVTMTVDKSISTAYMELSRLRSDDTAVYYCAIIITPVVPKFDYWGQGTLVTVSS VL: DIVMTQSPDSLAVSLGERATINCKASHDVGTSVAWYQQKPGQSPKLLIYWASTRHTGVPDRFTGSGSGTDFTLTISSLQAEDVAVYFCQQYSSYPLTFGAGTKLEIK

Result:
0.00037
0.000268
